Target: human FAAH (Homo sapiens, UniProt O00519)
Construct: expressed in transfected cells; host or cells: H4 cells (H4-FAAH, Geneticin-selected); crude membrane homogenates
Sequence (O00519 whole entry): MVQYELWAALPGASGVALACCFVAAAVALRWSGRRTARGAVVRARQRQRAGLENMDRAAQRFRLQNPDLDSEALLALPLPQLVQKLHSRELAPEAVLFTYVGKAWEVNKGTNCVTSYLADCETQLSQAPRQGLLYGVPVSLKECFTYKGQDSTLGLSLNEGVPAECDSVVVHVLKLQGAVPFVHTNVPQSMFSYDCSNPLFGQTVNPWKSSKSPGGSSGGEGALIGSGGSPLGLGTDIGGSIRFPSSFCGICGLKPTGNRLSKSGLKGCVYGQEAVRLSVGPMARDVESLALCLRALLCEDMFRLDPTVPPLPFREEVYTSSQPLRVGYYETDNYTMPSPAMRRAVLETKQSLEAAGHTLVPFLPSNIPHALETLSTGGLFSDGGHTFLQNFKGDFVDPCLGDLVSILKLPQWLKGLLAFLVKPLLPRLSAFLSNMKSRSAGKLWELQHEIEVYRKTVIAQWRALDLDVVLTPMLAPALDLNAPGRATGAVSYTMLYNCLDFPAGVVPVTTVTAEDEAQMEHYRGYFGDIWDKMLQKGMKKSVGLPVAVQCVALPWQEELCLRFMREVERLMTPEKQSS
Experiment: FAAH activity in membrane homogenates of H4-FAAH cells, [3H]-anandamide hydrolysis
Type: biochemical
Details: H4-FAAH cell membranes, 10 μM anandamide, room temperature, one hour; read-out: IC50
pIC50: −log10 of the molar value.
Here, each record is paired with measured pIC50 data.

1. O=C(Nc1ccc2oc3ccccc3c2c1)O/N=C/c1cccnc1: 6.30 to 7.00
2. CCCCOc1ccc(C(CC)NC(=O)Oc2ccc3ncccc3c2)cc1 (stereo not shown): 7.00 to 8.00
3. CCc1ccc(-c2ccc(NC(=O)O/N=C/c3ccccc3)cc2)cc1: > 8.00

Alright, here's another molecule for you.
I am curious: what pIC50 value has been reported for `CCCOc1ccc(NC(=O)ON=C(C)C)cc1` ? 6.30 to 7.00
